Biological target: KMT9 (Homo sapiens)
Test: Microscale thermophoresis (MST) KMT9 binding
Settings: microscale thermophoresis, His-tag labelled KMT9 (20 nM); read-out: MST
Below is a list of entries, each paired with its recorded Kd value.

Previously resolved entries follow.
MOLECULE	RECORDED_RESULT
CNc1ncnc2c1ccn2[C@@H]1C[C@H](CN2CCC23CCCNC3)[C@@H](O)[C@H]1O (some centres unmarked) [447 (319)]	> 1000 nM
CNc1ncnc2c1ccn2[C@@H]1C[C@H](CN2CC(CNCCc3ccc4ccccc4c3)C2)[C@@H](O)[C@H]1O [360 (264)]	> 1000 nM
C=Cc1cn([C@@H]2C[C@H](CN3CC(CNCCc4ccc(F)cc4)C3)[C@@H](O)[C@H]2O)c2ncnc(N)c12 [485 (359)]	10 to 100 nM
CC1CCNc2ncnc3c2c1cn3[C@@H]1C[C@H](CN)[C@@H](O)[C@H]1O (some centres unmarked) [Compound 629]	> 1000 nM
Nc1ncnc2c1c(-c1ncc[nH]1)cn2[C@@H]1C[C@H](CNCCCNCCc2ccccc2)[C@@H](O)[C@H]1O [473 (347)]	10 to 100 nM
CNc1ncnc2c1ccn2[C@@H]1C[C@H](CN(CCCN)c2cn[nH]c2Br)[C@@H](O)[C@H]1O [Compound 606]	> 1000 nM

I am curious: what Kd value has been reported for CNC(=O)[C@H]1C[C@@H](n2cc3c4c(ncnc42)NCCC3)[C@H](O)[C@@H]1O [Compound 624] ? > 1000 nM

// lookup Kd for CNc1ncnc2c1ccn2[C@@H]1C[C@H](CN(CCCNCCc2ccccc2)CC(F)(F)F)[C@@H](O)[C@H]1O [330 (234)] 100 to 1000 nM

Given CNc1ncnc2c1ccn2[C@@H]1C[C@H](CNC(=O)C2CCCNC2)[C@@H](O)[C@H]1O (some centres unmarked) [418 (289)] , state its recorded Kd. > 1000 nM

Value lookup for Kd; key = O=S(=O)(c1ccccc1)n1ccc(-c2cn([C@@H]3C[C@H](CNCCCNCCc4ccccc4)[C@@H](O)[C@H]3O)c3ncncc23)n1 [Compound 614] 100 to 1000 nM

Reported Kd, molecule Nc1ncnc2c1c(Br)cn2[C@@H]1C[C@H](CNCCCNCCc2cccc(Oc3ccccc3)c2)[C@@H](O)[C@H]1O [457 (329)] : ____ 10 to 100 nM

Quick one: Kd of O[C@@H]1[C@@H](CNCCCNCCc2ccccc2)C[C@@H](n2cc(-c3cc(Cc4ccccc4)cs3)c3cncnc32)[C@@H]1O [Compound 637] ? > 1000 nM

For the molecule shown here, Nc1nc(Cl)nc2c1c(-c1ccn(Cc3ccccc3)n1)cn2[C@@H]1C[C@H](C2CCNCC2)[C@@H](O)[C@H]1O [Compound 501] , give the reported Kd. ≤ 10 nM

Quick one: Kd of Nc1ncnc2c1ccn2[C@@H]1C[C@H](c2ccccc2)[C@@H](O)[C@H]1O [Compound 385] ? > 1000 nM

----------
Molecular target: KMT9 (Homo sapiens)
Assay: KMT9 methyltransferase inhibition assay, 3H-SAM scintillation (entries 1-154)
Assay type: biochemical
Conditions: entries 1-154: 3H-SAM assay, 25 nM KMT9, 5 μM ETF1
# key: entry, value: IC50

Field: example entries. Status: answers known.
COMPOUND	IC50
CNc1ncnc2c1ccn2[C@@H]1C[C@H](CN2CCCCC23CCNC3)[C@@H](O)[C@H]1O (stereo partly shown)	> 10 µM
Nc1ncnc2c1c(-c1ccccc1)cn2[C@@H]1C[C@H](CNCCCNCCc2ccc(F)cc2)[C@@H](O)[C@H]1O	0.1 to 1 µM
CNc1ncnc2c1ccn2[C@@H]1C[C@H](C(=O)NCCCNCCc2cccc(Oc3ccccc3)c2)[C@@H](O)[C@H]1O	1 to 10 µM
COCCn1cc(COc2ccc(CNCCCNC[C@H]3O[C@@H](n4cnc5c(N)ncnc54)[C@H](O)[C@@H]3O)cc2)nn1	> 10 µM
CNc1ncnc2c1ccn2[C@@H]1C[C@H](CCCCCNCCc2ccccc2)[C@@H](O)[C@H]1O	1 to 10 µM
Nc1ncnc2c1c(Br)cn2[C@@H]1C[C@H](C(=O)NCCCNCCc2ccccc2)[C@@H](O)[C@H]1O	0.1 to 1 µM

Kindly review the next compound as well.
So what does the record say about IC50 for Nc1ncnc2c1c(C1CC1)cn2[C@@H]1C[C@H](CNCCCNCCc2cccc(Oc3ccccc3)c2)[C@@H](O)[C@H]1O ? 0.1 to 1 µM

----------
Target: KMT9 (Homo sapiens)
Test: KMT9 thermal shift assay (SyproOrange)
Assay type: binding
Conditions: ΔTm; 500 µM compound, 2 μM KMT9, 5X SO; read-out: Thermal shift
RECORDED_ENDPOINT: ΔTm at 500 µM

// below: answered compounds
COMPOUND	RECORDED_RESULT
CNc1ncnc2c1ccn2[C@@H]1C[C@H](C(=O)NCC2CCCCN2)[C@@H](O)[C@H]1O (stereo partly shown) [350 (254)]	≤ 10 °C
Nc1ncnc2c1ncn2[C@@H]1O[C@H](CNCCCNCc2ccc3ccccc3c2)[C@@H](O)[C@H]1O [323 (226)]	≤ 10 °C
Nc1ncnc2c1c(Br)cn2[C@@H]1C[C@H](CNC[C@H]2CCCNC2)[C@@H](O)[C@H]1O [455 (327)]	10 to 15 °C

Fill blank: measured ΔTm at 500 µM of the compound CNc1ncnc2c1ccn2[C@@H]1C[C@H]([C@@H]2C[C@@H]2CCCNCCc2ccccc2)[C@@H](O)[C@H]1O [Compound 683] is ____. ≤ 10 °C

State the recorded ΔTm at 500 µM for this entry: Nc1ncnc2c1c(-c1nc(Cc3ccccc3)cs1)cn2[C@@H]1C[C@H]([C@H]2CCCNC2)[C@@H](O)[C@H]1O (single isomer, unassigned) [Compound 593S] 10 to 15 °C

Query: ΔTm at 500 µM; subject: Nc1ncnc2c1c(C1CCOCC1)cn2[C@@H]1C[C@H](CNCCCNCCc2ccccc2)[C@@H](O)[C@H]1O [479 (353)] 10 to 15 °C

----------
Measured ΔTm at 500 µM, listed per entry for reference.
Target: KMT9 (Homo sapiens, UniProt Q9Y5N5)
Sequence (Q9Y5N5 whole entry): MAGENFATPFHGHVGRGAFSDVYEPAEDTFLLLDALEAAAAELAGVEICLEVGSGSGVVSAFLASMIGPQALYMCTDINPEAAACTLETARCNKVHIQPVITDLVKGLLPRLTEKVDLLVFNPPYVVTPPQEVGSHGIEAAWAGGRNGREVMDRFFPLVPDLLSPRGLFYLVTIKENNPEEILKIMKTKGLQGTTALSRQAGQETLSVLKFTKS
Sequence (Q9UI30 1-120 isoform Q9UI30-2 partner): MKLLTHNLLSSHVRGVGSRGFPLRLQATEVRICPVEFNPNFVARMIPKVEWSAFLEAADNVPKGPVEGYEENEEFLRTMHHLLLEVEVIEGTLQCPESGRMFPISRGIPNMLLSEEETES
Experiment: KMT9 thermal shift assay (SyproOrange)
Type: binding
Details: 500 µM compound, 2 μM KMT9; read-out: Thermal shift (ΔTm)

Nc1nc(Cl)nc2c1c(-c1nc(Cc3ccccc3)cs1)cn2[C@@H]1C[C@H](C2CCN(Cc3cccs3)CC2)[C@@H](O)[C@H]1O 15 to 20 °C
CC(=O)c1cccc([C@H]2C[C@@H](n3ccc4c(N)ncnc43)[C@H](O)[C@@H]2O)c1 ≤ 10 °C
Nc1ncnc2c1ccn2[C@@H]1C[C@H]([C@@H]2CCCN2)[C@@H](O)[C@H]1O ≤ 10 °C
COc1ccc([C@H]2C[C@@H](n3ccc4c(N)nc(Cl)nc43)[C@H](O)[C@@H]2O)cn1 10 to 15 °C
CN1CC=C([C@H]2C[C@@H](n3cc(-c4nccs4)c4c(N)nc(Cl)nc43)[C@H](O)[C@@H]2O)CC1 15 to 20 °C
O[C@@H]1[C@H](O)[C@@H]([C@H]2CCCNC2)C[C@H]1n1ccc2c(C(F)F)ncnc21 ≤ 10 °C

Name the recorded ΔTm at 500 µM for CNc1nc(Cl)nc2c1ccn2[C@@H]1C[C@H](CNCCCNCCc2cccc(Oc3ccccc3)c2)[C@@H](O)[C@H]1O . 15 to 20 °C

----------
Target: KMT9 (Homo sapiens)
Assay: KMT9 thermal shift assay (SyproOrange)
Type: binding
Settings: ΔTm; 500 µM compound, 2 μM KMT9, 5X SO; read-out: Thermal shift
RECORDED_ENDPOINT: ΔTm at 500 µM

Observe how each entry below is paired with its result.
Nc1ncnc2c1c(-c1ccn(S(=O)(=O)c3ccccc3)n1)cn2[C@@H]1C[C@H](CNCCCNCCc2ccccc2)[C@@H](O)[C@H]1O 15 to 20 °C
O[C@@H]1[C@@H](CNCCCNCCc2ccccc2)C[C@@H](n2cc(-c3nc(Cc4ccccc4)cs3)c3cnc(Cl)nc32)[C@@H]1O 15 to 20 °C

Now take the following compound into account.
Param item = Nc1ncnc2c1ncn2[C@@H]1O[C@H](C(=O)NCCCNC(=O)Cc2ccccc2)[C@@H](O)[C@H]1O ; retrieve measured ΔTm at 500 µM. ≤ 10 °C

----------
Target: KMT9 (Homo sapiens)
Experiment: KMT9 thermal shift assay (SyproOrange)
Type: binding
Details: 500 µM compound, 2 μM KMT9; read-out: Thermal shift (ΔTm)
# ΔTm at 500 µM values compiled below

Example cases with answers are listed next.
Nc1nc(Cl)nc2c1ccn2[C@@H]1C[C@H](c2cn[nH]c2)[C@@H](O)[C@H]1O ≤ 10 °C
Nc1cc(-c2cnsc2)cc([C@H]2C[C@@H](n3ccc4c(N)nc(Cl)nc43)[C@H](O)[C@@H]2O)c1 10 to 15 °C
Nc1nc(Cl)nc2c1ccn2[C@@H]1C[C@H](c2cccc(CN3CCC3)c2)[C@@H](O)[C@H]1O 10 to 15 °C

# evaluate next
Value lookup for ΔTm at 500 µM; key = Nc1nc(Cl)nc2c1c(-c1nc(Cc3ccccc3)cs1)cn2[C@@H]1C[C@H](C2CCN(CC(F)F)CC2)[C@@H](O)[C@H]1O 10 to 15 °C
